Reported inhibition at 1 µM values follow for various compounds
Target: β5c subunit of isolated human 20S proteasome (Homo sapiens, UniProt P28074)
Construct: purchased Enzo Life Sciences
Test: Proteasome inhibition assay (20 S Proteasome Assay Kit, Suc‐LLVY‐AMC)
Format: biochemical
Details: c = 1 µM, n=1; read-out: Inhibition cCP β5
Peptide text beside a SMILES is read from it. * marks the point of attachment. Cbz = O=C(OCc1ccccc1)*; OtBu = CC(C)(C)O*
Express your answer in %, writing the number without its unit.

A selection of reference data follows.
Compound	Test Target	Unit Label	inhibition at 1 µM
CC(C)C[C@H](NC(=O)OCc1ccccc1)C(=O)N[C@@H](CC(=O)OC(C)(C)C)C(=O)N[C@@H](CC(C)C)C(=O)C(=O)Nc1ccccc1Oc1ccccc1	β5c subunit of isolated human 20S proteasome (Homo sapiens, UniProt P28074)	%	59
Cc1ccc(NC(=O)C(=O)[C@H](CC(C)C)NC(=O)[C@H](CC(C)C)NC(=O)[C@H](CC(C)C)NC(=O)OCc2ccccc2)cc1Oc1ccccc1	β5c subunit of isolated human 20S proteasome (Homo sapiens, UniProt P28074)	%	69
CC(C)C[C@H](NC(=O)OCc1ccccc1)C(=O)N[C@@H](CC(=O)OC(C)(C)C)C(=O)N[C@@H](CC(C)C)C(=O)C(=O)Nc1ccccc1	β5c subunit of isolated human 20S proteasome (Homo sapiens, UniProt P28074)	%	91

Request the reported inhibition at 1 µM associated with Cc1cc(C)c(Oc2ccccc2)cc1NC(=O)C(=O)[C@H](CC(C)C)NC(=O)[C@H](CC(=O)OC(C)(C)C)NC(=O)[C@H](CC(C)C)NC(=O)OCc1ccccc1
52

Request the reported inhibition at 1 µM associated with CC(C)C[C@H](NC(=O)OCc1ccccc1)C(=O)N[C@@H](CC(=O)OC(C)(C)C)C(=O)N[C@@H](CC(C)C)C(=O)C(=O)Nc1ccc(Oc2ccccc2)cc1
38

Request the reported inhibition at 1 µM associated with Cc1ccc(NC(=O)C(=O)[C@H](CC(C)C)NC(=O)[C@H](CC(=O)OC(C)(C)C)NC(=O)[C@H](CC(C)C)NC(=O)c2cc(Cl)ccc2Cl)c(C)c1
81

Request the reported inhibition at 1 µM associated with Cc1ccc(NC(=O)C(=O)[C@H](CC(C)C)NC(=O)[C@H](CC(C)C)NC(=O)[C@H](CC(C)C)NC(=O)OCc2ccccc2)c(C)c1Oc1ccccc1
53

Request the reported inhibition at 1 µM associated with CC(C)C[C@@H](C=O)NC(=O)[C@H](CC(=O)OC(C)(C)C)NC(=O)[C@H](CC(C)C)NC(=O)OCc1ccccc1 [Compound 5, BSc2118, reference compound] (Cbz-Leu-Asp(OtBu)-Leu-aldehyde)
90

Request the reported inhibition at 1 µM associated with CC(C)C[C@@H](C=O)NC(=O)[C@H](CC(C)C)NC(=O)[C@H](CC(C)C)NC(=O)c1cnccn1
75

Request the reported inhibition at 1 µM associated with Cc1ccc(NC(=O)C(=O)[C@H](CC(C)C)NC(=O)[C@H](CC(C)C)NC(=O)[C@H](CC(C)C)NC(=O)c2cc(Cl)ccc2Cl)c(C)c1
51

Request the reported inhibition at 1 µM associated with CC(C)C[C@H](NC(=O)OCc1ccccc1)C(=O)N[C@@H](CC(C)C)C(=O)N[C@@H](CC(C)C)C(=O)C(=O)Nc1ccc(Oc2ccccc2)cc1
63
